// data source = PubChem BioAssay AID2060907

- Tested on: 388556-164-R-J1-PDC complex spheroid viability
- measurementProtocol: Anticancer human tumor 388556-164-R-J1-PDC patient-derived colon adenocarcinoma cell line growth inhibition [RAS]
- assaySetup: second compound 0.0949 µM; first compound 0.0316 µM; active compounds read low
assayMetric: viability, T/C (%)
Hi! Could you send only the number? It should be in %, unit omitted.

Provide the documented viability, T/C with 388556-164-R-J1-PDC complex spheroid viability as the system for C=CC(=O)Nc1cc(Nc2nccc(-c3cn(C)c4ccccc34)n2)c(OC)cc1N(C)CCN(C)C + CCn1c(-c2cccnc2C(C)OC)c2c3cc(ccc31)N1CCOC(CC(NC(=O)C(C(C)C)N(C)C(=O)C3(F)CCN(C(=O)C#CC(C)(C)N(C)C)CC3)C(=O)N3CCCC(N3)C(=O)OCC(C)(C)C2)C1
95.9

What would you report for CC(=O)OC12COC1CC(O)C1(C)C(=O)C(O)C3=C(C)C(OC(=O)C(O)C(NC(=O)OC(C)(C)C)c4ccccc4)CC(O)(C(OC(=O)c4ccccc4)C21)C3(C)C (configuration not stated) + CCn1c(-c2cccnc2C(C)OC)c2c3cc(ccc31)N1CCOC(CC(NC(=O)C(C(C)C)N(C)C(=O)C3(F)CCN(C(=O)C#CC(C)(C)N(C)C)CC3)C(=O)N3CCCC(N3)C(=O)OCC(C)(C)C2)C1 ?
80.7

====

Please go through the items and note down their viability, T/C.
- System: 388556-164-R-J1-PDC complex spheroid viability
- measurementProtocol: Anticancer human tumor 388556-164-R-J1-PDC cell line growth inhibition [RAS];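 note: spheroids exposed to compound for 7 days before readout; 100% = DMSO vehicle control luminescence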
- assaySetup: second compound 0.000949 µM; first compound 0.316 µM; active compounds read low
Hi! Could you send only the number? It should be in %, unit omitted.

Data request, read-out viability, T/C, for Cc1nc(N2CCC3(CC2)COC(C)C3N)c(CO)nc1Sc1ccnc(N)c1Cl (stereo not drawn) + CCn1c(-c2cc(N3CCN(C)CC3)cnc2C(C)OC)c2c3cc(ccc31)-c1csc(n1)CC(NC(=O)C1CC1C)C(=O)N1CCCC(N1)C(=O)OCC(C)(C)C2
60.2

What would you report for CC(C)NCC(C(=O)N1CCN(c2ncnc3c2C(C)CC3O)CC1)c1ccc(Cl)cc1 (stereo not drawn) + CCn1c(-c2cc(N3CCN(C)CC3)cnc2C(C)OC)c2c3cc(ccc31)-c1csc(n1)CC(NC(=O)C1CC1C)C(=O)N1CCCC(N1)C(=O)OCC(C)(C)C2 ?
96.4

What would you report for CCN1CCN(Cc2ccc(Nc3ncc(F)c(-c4cc(F)c5nc(C)n(C(C)C)c5c4)n3)nc2)CC1 + CCn1c(-c2cc(N3CCN(C)CC3)cnc2C(C)OC)c2c3cc(ccc31)-c1csc(n1)CC(NC(=O)C1CC1C)C(=O)N1CCCC(N1)C(=O)OCC(C)(C)C2 ?
75

====

Please go through the items and note down their viability, T/C.
- Test system: 388556-164-R-J1-PDC complex spheroid viability
- measurementProtocol: Anticancer human tumor 388556-164-R-J1-PDC cell line growth inhibition [RAS];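 note: spheroids exposed to compound for 7 days before readout; 100% = DMSO vehicle control luminescence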
- assaySetup: second compound 0.0316 µM; first compound 3.16 µM; active compounds read low

Data request, read-out viability, T/C, for NC1c2ccccc2OC12CCN(c1cnc3c(N4CCCc5ncccc54)n[nH]c3n1)CC2 (stereo not drawn) + C=CC(=O)N1CCN(c2nc(OCC3CCCN3C)nc3c(F)c(-c4nc(N)cc(C)c4C(F)(F)F)c(Cl)cc23)C(C)C1
39.8%

What would you report for CCC(CC)c1cc(NC2CCC(N)C2)n2nccc2n1 (stereo not drawn) + C=CC(=O)N1CCN(c2nc(OCC3CCCN3C)nc3c(F)c(-c4nc(N)cc(C)c4C(F)(F)F)c(Cl)cc23)C(C)C1 ?
43.3%

What would you report for CC1(O)CCCC1n1c(=O)c(C(F)F)cc2cnc(NC3CCN(S(C)(=O)=O)CC3)nc21 (stereo not drawn) + C=CC(=O)N1CCN(c2nc(OCC3CCCN3C)nc3c(F)c(-c4nc(N)cc(C)c4C(F)(F)F)c(Cl)cc23)C(C)C1 ?
115%
